- Assay Target: human FGFR2b extracellular domain (human, UniProt P21802)
- Sequence (P21802 22-377): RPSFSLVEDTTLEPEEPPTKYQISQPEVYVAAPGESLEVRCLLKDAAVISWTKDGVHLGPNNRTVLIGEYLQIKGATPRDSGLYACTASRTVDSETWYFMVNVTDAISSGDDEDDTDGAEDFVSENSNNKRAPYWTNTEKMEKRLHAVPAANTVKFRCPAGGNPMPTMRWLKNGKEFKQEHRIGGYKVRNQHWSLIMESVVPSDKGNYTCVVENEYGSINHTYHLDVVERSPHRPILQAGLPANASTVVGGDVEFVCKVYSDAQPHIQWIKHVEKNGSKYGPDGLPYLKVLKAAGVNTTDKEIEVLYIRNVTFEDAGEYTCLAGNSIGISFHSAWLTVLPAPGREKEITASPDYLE
- Test Summary: BLI
Attribute Measured: Kd

Binder: 3F10 (antibody, V domains shown) VH: EVQLQQSGAELVKPGASVKMSCKASGYTFSFYNIHWVRQTPGQGLEWIGLIYPDNGDTSYNQKFKAKATLTADKSSSTAYMQLSSLTSEDSAVYYCARGGFDYWGQGTTLTVSS VL: DVLMTQSPASLSASVGETVTITCGASENIYGALNWYQRKQGKSPQLLIYGATNLADGMSSRFSGSGSGRQYSLKISSLHPDDVATYYCQNVLSTPYTFGGGTKLEIK
Attribute Measured: Kd
Result: 7.62 nM

Binder: 1G6 (antibody, V domains shown) VH: EIQLQQSGAELVKPGASVKMSCKASGYTFRYYNMHWVKRTPGQGLEWIGLIYPDNGDTSYNQKFKGKATLTADTSSSTAYMQLSSLTSEDSAVYYCARGGLDYWGQGTSLTVSS VL: NIVMTQSHKFMSTSVGDRVSITCKASQDVNTDVAWYQQKPGQSPKLLIYSASYRYTGVPTRFTGSGSGTDFTFTISGVQAEDLADYYCQQHYNTPYTFGGGTKLELK
Attribute Measured: Kd
Result: 3.97 nM

Binder: 1B8 (antibody, V domains shown) VH: QIQLQQSGAELVKPGASVKMSCKASGYTFASYNLHWVKQTPGQGLEWIGLIYPENGDTSYNQKFKGKATLTADTSSTTAYIQLSSLTSEDSAVYFCARGGFDYWGQGTSLTVSS VL: DIKMTQSPASLSASVGETVTITCGASENIYGALNWYQRKQGKSPQLLIYGATNLADGMSSRFSGSGSGRQYSLKISSLHPDDVATYYCQNVLSTPYTFGGGTKLEIK
Attribute Measured: Kd
Result: 13.3 nM
